# TARGET UNDER TEST: Human recombinant carboxy-terminal his-tagged LDHA (amino acids 2-332) (Homo sapiens, UniProt P00338)
# TEST DETAILS: LDHA enzyme inhibition assay (NADH fluorescence)
# CONDITIONS: LDHA IC50 (μM), 1 nM LDHA, NADH and pyruvate, stereochemistry of tested sample given
OUTCOME MEASURE: IC50 (µM)

Consider the reported IC50 for these molecules:
Enquiry: What does the record list as IC50 for O=C1CC(c2ccsc2)(c2cccc(Oc3ccc(F)c(C(F)(F)F)c3)n2)NC(=O)C1Sc1ccccc1Cl (single isomer, unassigned) [Example 144] ?
Return: 0.143

Enquiry: What does the record list as IC50 for O=C1CC(c2ccsc2)(c2cccc(Oc3cccc(F)c3)n2)NC(=O)C1Sc1ccccc1Cl (stereo not drawn) [Example 80] ?
Return: 0.056

Enquiry: What does the record list as IC50 for CCOCCOc1cccc(C2(c3ccsc3)CC(=O)C(Sc3ccccc3Cl)C(=O)N2)n1 (single isomer, unassigned) [Example 227] ?
Return: 0.015

Enquiry: What does the record list as IC50 for O=C1CC(c2ccsc2)(c2cccc(OCC3CC(F)(F)C3)n2)NC(=O)C1Sc1ccccc1Cl (single isomer, unassigned) [Example 165] ?
Return: 0.004

Enquiry: What does the record list as IC50 for Cc1cnc(Nc2cccc(C3(c4ccsc4)CC(=O)C(Sc4ccccc4Cl)C(=O)N3)n2)s1 (stereo not drawn) ?
Return: 0.141

a. CCC(Nc1cccc(C2(c3ccsc3)CC(=O)C(Sc3ccccc3Cl)C(=O)N2)n1)c1ccc(F)cc1 (stereo not drawn)
b. O=C1CC(c2ccsc2)(c2cccc(Oc3ccc(F)c(F)c3)n2)NC(=O)C1Oc1ccccc1Cl (stereo not drawn)
c. O=C1C[C@](c2ccsc2)(c2cccc(Oc3ccc(F)nc3Cl)n2)NC(=O)C1Sc1ccccc1Cl (mixture of isomers)
d. CC(CC1CC1)Oc1cccc(C2(c3ccsc3)CC(=O)C(Sc3ccccc3Cl)C(=O)N2)n1 (single isomer, unassigned) [Example 241]
e. COc1cc(F)ccc1Oc1cccc(C2(c3ccsc3)CC(=O)C(Sc3ccccc3Cl)C(=O)N2)n1 (stereo not drawn)
Enquiry: Arrange items by their IC50 values in increasing order. State the ranking by listing the labels in the requested order.
Return: d, b, a, c, e
(d: 0.003 µM, b: 0.01 µM, a: 0.021 µM, c: 0.162 µM, e: 0.739 µM)

1. CC[C@@H](Nc1cccc(C2(c3ccsc3)CC(=O)C(Sc3ccccc3Cl)C(=O)N2)n1)c1ccc(F)c(Cl)c1 (stereo partly drawn)
2. O=C1CC(c2ccsc2)(c2cccc(Cc3ccc(Cl)c(F)c3)n2)NC(=O)C1Sc1ccccc1Cl (stereo not drawn)
3. O=C1CC(c2ccc(OCCO)cc2)(c2ccsc2)NC(=O)C1Sc1ccccc1Cl (stereo not drawn)
4. O=C1CC(c2ccsc2)(c2cccc(Oc3cccc4c3NCCC4)n2)NC(=O)C1Sc1ccccc1Cl (stereo not drawn) [Example 102]
5. CC1(COc2cccc(C3(c4ccsc4)CC(=O)C(Sc4ccccc4Cl)C(=O)N3)n2)CC1 (single isomer, unassigned) [Example 206]
Enquiry: Arrange items by their IC50 values in increasing order. State the ranking by listing the labels in the requested order.
Return: 2, 3, 4, 5, 1
(2: 0.005 µM, 3: 0.009 µM, 4: 0.018 µM, 5: 0.027 µM, 1: 0.149 µM)
